The origin of these recorded values is patent US12310365B2.

This listing pairs compounds with measured pest or weed control at 10 ppm.
tested on: Sphaerotheca fuliginea; experiment: Cucumber powdery mildew preventive test; type: in vivo; conditions: Podosphaera fuliginea, topical, 168 h; treatment concentration 10 ppm
Quantity Name: pest or weed control at 10 ppm

[
  {
    "Compound": "C[Si](C)(C)CC(O)(Cn1cncn1)c1ccc(F)cc1 (stereo not drawn)",
    "Target Entity": "Sphaerotheca fuliginea",
    "Result Value": "0%"
  },
  {
    "Compound": "CC1(C)N=C(c2cnc3ccccc3c2)c2cccc(F)c2C1(F)F",
    "Target Entity": "Sphaerotheca fuliginea",
    "Result Value": "65%"
  },
  {
    "Compound": "CC1(C)N=C(c2cnc3ccccc3c2)c2cccc(F)c2C1(C)C",
    "Target Entity": "Sphaerotheca fuliginea",
    "Result Value": "50%"
  }
]
